# ASSAYED TARGET: acetylcholinesterase from Electrophorus electricus (Electric eel) (Electrophorus electricus, UniProt O42275)
# Construct: purchased Sigma (St. Louis, MO, USA)
# Sequence (O42275 24-633): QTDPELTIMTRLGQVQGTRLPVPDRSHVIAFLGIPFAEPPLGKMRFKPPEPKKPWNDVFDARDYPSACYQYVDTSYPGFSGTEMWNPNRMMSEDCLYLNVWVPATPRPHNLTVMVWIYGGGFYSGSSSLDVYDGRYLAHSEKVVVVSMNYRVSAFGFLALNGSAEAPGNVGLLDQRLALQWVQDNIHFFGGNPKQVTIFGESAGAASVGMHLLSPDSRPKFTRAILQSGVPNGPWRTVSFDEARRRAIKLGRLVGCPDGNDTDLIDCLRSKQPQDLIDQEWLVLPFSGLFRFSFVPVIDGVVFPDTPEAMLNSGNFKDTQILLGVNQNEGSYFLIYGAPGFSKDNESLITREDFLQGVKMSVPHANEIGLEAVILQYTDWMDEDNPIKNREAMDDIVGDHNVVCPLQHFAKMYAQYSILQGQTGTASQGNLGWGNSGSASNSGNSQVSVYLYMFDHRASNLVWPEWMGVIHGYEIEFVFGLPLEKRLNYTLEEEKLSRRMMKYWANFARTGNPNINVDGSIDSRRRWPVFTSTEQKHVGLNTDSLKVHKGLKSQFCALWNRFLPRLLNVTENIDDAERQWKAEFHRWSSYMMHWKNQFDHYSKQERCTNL
# ASSAY DETAILS: Inhibition assay for acetylcholinesterase activity (modified Ellman, ATCI/DTNB, 412 nm)
# Type: biochemical
VALUE KIND: IC50 (µM)
Express your answer in µM, writing the number without its unit.

# get_value(readout='IC50', item= "CC(/C=C/C=C(\C)C(=O)O[C@@H]1O[C@H](CO[C@@H]2O[C@H](CO)[C@@H](O)[C@H](O)[C@H]2O)[C@@H](O)[C@H](O)[C@H]1O)=C\C=C\C=C(C)\C=C\C=C(/C)C(=O)O[C@@H]1O[C@H](CO[C@@H]2O[C@H](CO)[C@@H](O)[C@H](O)[C@H]2O)[C@@H](O)[C@H](O)[C@H]1O" )
920

Entry "Oc1cccc(O)c1O" please
3800

Entry C[C@@H]1O[C@@H](OC[C@H]2O[C@@H](Oc3c(-c4ccc(O)c(O)c4)oc4cc(O)cc(O)c4c3=O)[C@H](O)[C@@H](O)[C@@H]2O)[C@H](O)[C@H](O)[C@H]1O [Rutin hydrate, rutin hydrate] please
1900

Entry Cn1c(=O)c2c(ncn2C)n(C)c1=O [Caffeine, caffeine, reference compound] please
380

Entry C[N+](C)(C)CCOC(N)=O [Carbachol, carbachol, reference compound] please
210

Hey, just so you know, these numbers are from paper PMC6544338.
